- Measurement target: serotoninergic 5-HT2A receptor (Homo sapiens, UniProt P28223)
- Sequence (P28223 whole entry): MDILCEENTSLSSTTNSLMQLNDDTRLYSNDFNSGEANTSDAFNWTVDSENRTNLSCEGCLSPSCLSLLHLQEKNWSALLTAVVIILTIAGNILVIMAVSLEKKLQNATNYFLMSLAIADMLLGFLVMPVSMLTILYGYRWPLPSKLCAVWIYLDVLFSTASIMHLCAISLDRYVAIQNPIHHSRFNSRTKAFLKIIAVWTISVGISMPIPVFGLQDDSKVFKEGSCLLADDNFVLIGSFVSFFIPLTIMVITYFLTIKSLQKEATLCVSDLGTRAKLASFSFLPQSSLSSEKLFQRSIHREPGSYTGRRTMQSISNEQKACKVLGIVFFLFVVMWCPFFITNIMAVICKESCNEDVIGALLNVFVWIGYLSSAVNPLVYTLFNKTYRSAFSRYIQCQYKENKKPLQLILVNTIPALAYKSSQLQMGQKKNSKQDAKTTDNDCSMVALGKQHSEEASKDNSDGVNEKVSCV
- Protocol details: Binding assay 5-HT2A (h), [3H]ketanserin, HEK-293 cells
- Set-up: expressed in transfected cells; host or cells: HEK-293 cells
- Run conditions: read-out: 5-HT2A
Binary classification by inhibition at 1 µM, with 80% as an inclusive lower bound for TRUE; all other cases are FALSE.

O=S(=O)(NCCCN1CCN(c2nsc3ccccc23)CC1)c1cccc(C(F)(F)F)c1
TRUE
COc1cccc(S(=O)(=O)NCCCCN2CCN(c3nsc4ccccc34)CC2)c1
TRUE
O=S(=O)(NCCCN1CCN(c2cccc3c2OCCO3)CC1)c1ccc(F)c(F)c1
FALSE
O=S(=O)(NCCCCN1CCN(c2cccc3[nH]ccc23)CC1)c1ccccc1
FALSE
O=S(=O)(NCCCCN1CCN(c2nsc3ccccc23)CC1)c1ccc(F)c(F)c1
TRUE

# next compound below
Assess whether reported inhibition at 1 µM for "O=S(=O)(NCCCN1CCN(c2cccc3c2OCCO3)CC1)c1ccc(F)cc1" sits at 80% or higher.
FALSE
